Reference source for all entries: patent US20080102065A1

- tgt: T1, huEpoR expressed on the cell surface (UT-7 cells) (human, UniProt P19235 25-508)
- T1 sequence (looked up): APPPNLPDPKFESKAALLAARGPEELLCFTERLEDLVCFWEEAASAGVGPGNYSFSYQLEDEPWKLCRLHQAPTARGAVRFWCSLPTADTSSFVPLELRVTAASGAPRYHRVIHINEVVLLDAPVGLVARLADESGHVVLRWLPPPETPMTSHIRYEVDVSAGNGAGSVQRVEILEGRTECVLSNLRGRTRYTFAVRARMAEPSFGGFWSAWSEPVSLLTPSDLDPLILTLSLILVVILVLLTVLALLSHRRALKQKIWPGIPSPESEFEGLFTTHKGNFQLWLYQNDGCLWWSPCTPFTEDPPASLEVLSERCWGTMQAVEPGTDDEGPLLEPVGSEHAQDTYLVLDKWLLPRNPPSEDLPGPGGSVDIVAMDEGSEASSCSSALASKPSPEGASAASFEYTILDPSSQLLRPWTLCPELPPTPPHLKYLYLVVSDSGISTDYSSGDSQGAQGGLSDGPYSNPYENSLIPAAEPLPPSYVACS
- protocol-description: cell-based or functional assay
Note to self: Ratio (EC50 of Epo / EC50 of the scFv-Fc), UT-7-luciferase assay under 0.02 means T, ties and anything higher get F.

Completed entries (count: 5):
Mxb 318 (clone 318 scFv-Fc protein) (Fc fusion, Tested as scFv-Fc (maxibody) with an Fc derived from human IgG1) VH: QVQLVESGGGLVQPGGSLRLSCAVSGFTFSKYWMTWVRQAPGKGLEWVANIKPDGSEKYYVESVKGRFTISRDNAKNSVYLQMNSVRAEDTAVYYCARVSRGGSFSDWGQGTLVTVSS VL: QSVLTQPPSASGSPGQSVTISCTGTSSDVGGYNYVSWYQQHPGRAPKLIIYEVSKRPSGVPDRFSGSKSGNTASLTVSGLQADDEADYYCNSYAGSIYVFGSGTKVTVL ... F
Mxb 323 (clone 323 scFv-Fc protein) (Fc fusion) VH: QVQLVESGGGLVQPGGSLRLSCAVSGFTFSKYWMTWVRQAPGKGLEWVANIKPDGSEKYYVESVKGRFTISRDNAKNSVYLQMNSVRAEDTAVYYCARVSRGGSFSDWGRGTMVTVSS VL: QSALTQPASVSGSPGQSITISCTGTSSDVGSYNLVSWYQQHPGKVPKLIIYEVSNRPSGVSHRFSGSKSGNTASLTISGLQAEDEADYYCSSLTSSGTWVFGGGTKVTVL ... T
Mxb 330 (clone 330 scFv-Fc protein) (Fc fusion, Tested as scFv-Fc (maxibody) with an Fc derived from human IgG1) VH: EVQLVESGGGLVQPGGSLRLSCAVSGFTFSKYWMTWVRQAPGKGLEWVANIKPDGSEKYYVESVKGRFTISRDNAKNSVYLQMNSVRAEDTAVYYCARVSRGGSFSDWGQGTLVTVSS VL: QSALTQPPSASGSPGQSVTISCTGTSSDVGAYNYVSWYQQHPGKAPKLMIYEVARRPSGVPDRFSGSKSGNTASLTVSGLQAEDEADYYCSSYAGSNNFAVFGRGTKLTVL ... F
Mxb 319 (clone 319 scFv-Fc protein) (Fc fusion, Tested as scFv-Fc (maxibody) with an Fc derived from human IgG1) VH: QVQLVQSGAEIKKPGASVKVSCKTFGSPFSTNDIHWVRQAPGQGLEWMGIIDTSGAMTRYAQKFQGRVTVTRETSTSTVYMELSSLKSEDTAVYYCAREGCTNGVCYDNGFDIWGQGTLVTVSS VL: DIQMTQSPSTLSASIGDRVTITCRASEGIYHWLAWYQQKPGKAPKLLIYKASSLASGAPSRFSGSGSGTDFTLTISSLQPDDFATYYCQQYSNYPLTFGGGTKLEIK ... T
Mxb 378 (clone 378 scFv-Fc protein) (Fc fusion) VH: QVQLVESGGGLVQPGRSLILSCAVSGFTFSKYWMTWVRQAPGKGLEWVANIKPDGSEKYYVESVKGRFTISRDNAKNSVYLQMNSVRAEDTAVYYCARVSRGGSFSDWSQGTLVTVSS VL: QSALTQPPSASGSPGQSVTISCTGTSGDVGAYNYVSWYQQYPGKAPKLMIYEVSKRPSGVPDRFSGSKSGNTASLTVSGLQAEDEADYYCNSYRGSNGPWVFGGGTKVTVL ... F

Is Ratio (EC50 of Epo / EC50 of the scFv-Fc), UT-7-luciferase assay strictly under 0.02 for the entry Mxb 295 (clone 295 scFv-Fc protein) (Fc fusion, Tested as scFv-Fc (maxibody) with an Fc derived from human IgG1) VH: EVQLVESGGGLVQPGGSLRLSCAASGFTFSSYAMSWVRQAPGKGLEWVSGISGSGSSEGGTYYADSVKGRFTLSRDNSKNTLYLQMNSLRAEDTALYYCVKDRPSRYSFGYYFDYWGRGTLVTVSS VL: LPVLTQPPSVSVSPGQTASIACSGNKLGDKYVSWYQQKPGQSPLLVIYQDTKRPSGIPERFSGSNSGNTATLTISGTQAMDEADYYCQAWDSSTDVVFGGGTKLTVL ? T

Is Ratio (EC50 of Epo / EC50 of the scFv-Fc), UT-7-luciferase assay strictly under 0.02 for the entry Mxb 352 (clone 352 scFv-Fc protein) (Fc fusion) VH: EVQLVQSGGGLVQPGGSLRLSCAASGFRFSSYWMTWVRQAPGKGLEWVANIKPDGSEKYYVDSVKGRFTMSRDNAKNSVYLQMNSLRAEDTAVYYCARVSRGGSFSDWGQGTLVTVSS VL: QSALTQPASVSGSPGQSITIPCTGTSSDIGTYDYVSWYQQHPGKVPKVIIYEVTNRPSGVSNRFSGSKSGNTASLTISGLQADDEADYYCNSFTKNNTWVFGGGTKLTVL ? T

Is Ratio (EC50 of Epo / EC50 of the scFv-Fc), UT-7-luciferase assay strictly under 0.02 for the entry Mxb 201 (clone 201 scFv-Fc protein) (Fc fusion, Tested as scFv-Fc (maxibody) with an Fc derived from human IgG1) VH: QVQLQESGSGLARPSQTLSLTCAVSGGSISSSAFSWNWIRQPPGKGLEWIGYIYHTGITDYNPSLKSRVTISVDRSKNQFSLNVNSVTAADTAVYYCARGHGSDPAWFDPWGKGTLVTVSS VL: QSVLTQPPSVSVSPGQTASITCSGDKLGDKYASWYQQRPGQSPVLVIYRDTKRPSGIPERFSGSNSGNTATLTISGTQAVDEADYYCQAWDSTTSLVFGGGTKLTVL ? T

Is Ratio (EC50 of Epo / EC50 of the scFv-Fc), UT-7-luciferase assay strictly under 0.02 for the entry Mxb 307 (clone 307 scFv-Fc protein) (Fc fusion, Tested as scFv-Fc (maxibody) with an Fc derived from human IgG1) VH: EVQLVESGGGLVQPGGSLRLSCAVSGFTFSKYWMTWVRQAPGKGLEWVANIKPDGSEKYYVESVKGRFTISRDNAKNSVYLQMNSVRAEDTAVYYCARVSRGGSFSDWGQGTMVTVSS VL: QSVLTQPPSASGSPGQSVTISCTGTSSDVGGYNYVSWYQQHPDKAPRLMIYDVNKRPSGVPDRFSGSKSGNTASLTVSGLQAEDEAHYYCNSYAGSNNWVFGGGTQLTVL ? F

Is Ratio (EC50 of Epo / EC50 of the scFv-Fc), UT-7-luciferase assay strictly under 0.02 for the entry Mxb 34 (clone 34 scFv-Fc protein) (Fc fusion, Tested as scFv-Fc (maxibody) with an Fc derived from human IgG1) VH: QVQLQQSGAEVKKPGASVKVSCKASGYTFSGYYMHWVRQAPGQGLEWMGWINPNSGSTNYAQKFLGRVTMTRDTSISTAYMELSSLRSDDTAVYYCARGHSGDYFDYWGQGTLVTVSA VL: EIVLTQSPSSLSASVGDRVTITCRASQSVSSWLAWYQQRPGQAPKLLIYAARLRGGGPSRFSGSGSGTEFTLTISSLQPEDFATYFCQQSYSTPISFGGGTKLEIK ? F
